# System under test: sGC α1/β1 heterodimer (Homo sapiens, UniProt Q02108+Q02153)
# Construct: expressed in transfected cells
# Sequence (Q02108 1-690): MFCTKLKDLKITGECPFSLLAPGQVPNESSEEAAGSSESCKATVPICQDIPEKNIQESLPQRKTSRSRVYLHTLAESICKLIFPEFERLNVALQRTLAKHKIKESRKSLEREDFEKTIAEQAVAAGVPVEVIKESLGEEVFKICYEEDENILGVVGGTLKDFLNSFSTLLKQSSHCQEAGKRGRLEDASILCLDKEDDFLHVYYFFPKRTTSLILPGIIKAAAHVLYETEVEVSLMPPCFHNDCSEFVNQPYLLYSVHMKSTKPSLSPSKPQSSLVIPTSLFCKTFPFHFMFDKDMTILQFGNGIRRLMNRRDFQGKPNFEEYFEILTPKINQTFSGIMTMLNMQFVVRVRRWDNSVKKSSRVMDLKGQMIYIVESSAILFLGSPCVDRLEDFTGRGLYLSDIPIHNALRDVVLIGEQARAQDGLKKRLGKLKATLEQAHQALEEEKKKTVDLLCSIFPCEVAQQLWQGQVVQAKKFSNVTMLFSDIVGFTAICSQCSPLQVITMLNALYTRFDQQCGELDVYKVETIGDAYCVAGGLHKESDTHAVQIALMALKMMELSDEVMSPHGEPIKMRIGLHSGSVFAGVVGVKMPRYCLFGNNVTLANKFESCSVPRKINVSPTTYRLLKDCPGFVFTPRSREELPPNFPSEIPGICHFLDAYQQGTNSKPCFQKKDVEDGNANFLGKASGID
# Sequence (Q02153 1-619): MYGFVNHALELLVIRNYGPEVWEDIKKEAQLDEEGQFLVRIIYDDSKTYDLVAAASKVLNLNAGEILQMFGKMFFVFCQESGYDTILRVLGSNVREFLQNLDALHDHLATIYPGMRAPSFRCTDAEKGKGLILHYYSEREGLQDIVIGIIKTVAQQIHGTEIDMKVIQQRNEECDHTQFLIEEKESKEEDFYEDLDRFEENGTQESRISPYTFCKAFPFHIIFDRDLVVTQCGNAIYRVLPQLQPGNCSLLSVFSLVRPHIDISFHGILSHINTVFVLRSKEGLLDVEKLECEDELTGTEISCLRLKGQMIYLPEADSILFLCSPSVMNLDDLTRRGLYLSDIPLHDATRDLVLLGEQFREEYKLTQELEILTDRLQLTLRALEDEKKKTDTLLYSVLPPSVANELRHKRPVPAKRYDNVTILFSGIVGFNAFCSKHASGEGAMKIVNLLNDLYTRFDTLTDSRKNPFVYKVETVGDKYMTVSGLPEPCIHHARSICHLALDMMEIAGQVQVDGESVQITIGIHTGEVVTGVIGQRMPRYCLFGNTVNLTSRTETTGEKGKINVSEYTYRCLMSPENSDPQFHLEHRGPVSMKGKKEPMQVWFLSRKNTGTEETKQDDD
# Assay comment: Cell-Based sGC Functional Assay (CASA Assay), cGMP generation in CHO-K1/sGC cells;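 also: reference Compound A is a published heme-dependent sGC activator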
# Cond: maximum cGMP production of Compound A set to 100% activation, read-out: % Act. (percent activation relative to Compound A)
Readout kind: Emax (%)

Guide cases for Emax, answers given:
# Molecule, Numeric result
measured = [
    ("CC1(c2ccc(Cl)cc2)C(=O)Nc2nc(-c3cn4ncnc4cn3)nc(N)c21 (stereo not shown) [Example 94A]", 138),
    ("CC1(c2ccc(Cl)cc2)C(=O)Nc2nc(-c3cn4ncnc4c(CCC(F)(F)F)n3)nc(N)c21 (stereo not shown) [Example 76A]", 120),
]

A = CC1(c2ccc(Cl)c(F)c2)C(=O)Nc2nc(-c3cn4ncnc4c(CCCC(F)(F)F)n3)nc(O)c21 (stereo not shown) [Example 138B]
B = CC1(c2ccc(C(F)F)cn2)C(=O)Nc2nc(-c3cn4ncnc4c(CCCC(F)(F)F)n3)nc(N)c21 (stereo not shown) [Example 43B]
// compare: A vs B , metric Emax, want the smaller Indicate your choice by writing its label. B

###

# System under test: sGC α1/β1 heterodimer (Homo sapiens, UniProt Q02108+Q02153)
# Construct: expressed in transfected cells
# Assay comment: Cell-Based sGC Functional Assay (CASA Assay), cGMP generation in CHO-K1/sGC cells;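 also: reference Compound A is a published heme-dependent sGC activator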
# Cond: maximum cGMP production of Compound A set to 100% activation, read-out: % Act. (percent activation relative to Compound A)
Readout kind: Emax (%)

Guide cases for Emax, answers given:
# Compound, Value units, Numeric result
data = [
    ("CCCc1nc(-c2nc(O)c3c(n2)NC(=O)C3(c2ccc(F)c(F)c2)C2CC2)cn2ncnc12 (stereo not shown) [Example 167A]", "%", 70),
    ("CC1(c2ccc(Cl)cn2)C(=O)Nc2nc(-c3cn4ncnc4c(CCC(F)(F)C(F)(F)F)n3)ncc21 (stereo not shown) [Example 175A]", "%", 115),
    ("Cc1cnc(C2(C3CC3)C(=O)Nc3nc(-c4cn5ncnc5c(CCC(F)(F)C(F)(F)F)n4)nc(N)c32)cn1 (racemic) [Example 21B]", "%", 99),
    ("CCCCc1nc(-c2nc(N)c3c(n2)NC(=O)C3(C)c2ccc(F)cn2)cn2ncnc12 (stereo not shown) [Example 61B]", "%", 177),
    ("CCCCc1nc(-c2nc(O)c3c(n2)NC(=O)C3(C)c2ccc(F)c(F)c2)cn2ncnc12 (stereo not shown) [Example 158B]", "%", 232),
    ("Nc1nc(-c2cn3ncnc3c(CCCC(F)(F)F)n2)nc2c1C(c1ccc(C(F)(F)F)cc1)(C1CC1)C(=O)N2 (stereo not shown) [Example 35A]", "%", 164),
    ("Nc1nc(-c2cn3ncnc3c(CCCC(F)(F)F)n2)nc2c1C(c1ccc(O)cn1)(C1CC1)C(=O)N2 (stereo not shown) [Example 112A]", "%", 91),
    ("CC1(c2ccc(C#N)cn2)C(=O)Nc2nc(-c3cn4ncnc4c(CCCC(F)(F)F)n3)nc(N)c21 (stereo not shown) [Example 48A]", "%", 85),
    ("Cc1ccc(C2(C)C(=O)Nc3nc(-c4cn5ncnc5c(CCC(F)(F)C(F)(F)F)n4)nc(O)c32)nc1 (stereo not shown) [Example 130B]", "%", 109),
    ("CC1(c2ccc(O)cn2)C(=O)Nc2nc(-c3cn4ncnc4c(CCC(F)(F)C(F)(F)F)n3)nc(N)c21 (stereo not shown) [Example 110A]", "%", 70),
]

a = CCCc1nc(-c2nc(N)c3c(n2)NC(=O)C3(c2ccc(C(F)(F)F)cn2)C2CC2)cn2ncnc12 (stereo not shown) [Example 56A]
b = CCCCc1nc(-c2nc(N)c3c(n2)NC(=O)C3(c2nnc(C(F)(F)F)o2)C2CC2)cn2ncnc12 (stereo not shown) [Example 105A]
Which item exceeds the other in Emax, a or b ? Indicate your choice by writing its label. b
(b: 176%, a: 81%)

###

# System under test: sGC α1/β1 heterodimer (Homo sapiens, UniProt Q02108+Q02153)
# Construct: expressed in transfected cells
# Assay comment: Cell-Based sGC Functional Assay (CASA Assay), cGMP generation in CHO-K1/sGC cells;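 also: reference Compound A is a published heme-dependent sGC activator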
# Cond: maximum cGMP production of Compound A set to 100% activation, read-out: % Act. (percent activation relative to Compound A)
Readout kind: Emax (%)

Guide cases for Emax, answers given:
# Molecule, Emax [%]
rows = [
    ("O=C1Nc2nc(-c3cn4ncnc4c(CCC(F)(F)C(F)(F)F)n3)nc(O)c2C1(c1cncc(F)c1)C1CC1 (centres unmarked) [Example 124B]", 88),
    ("CCCc1nc(-c2nc(O)c3c(n2)NC(=O)[C@@]3(C)c2ccc(F)cc2)cn2ncnc12 [Example 165A]", 114),
    ("Cc1nc2c(CCC(F)(F)C(F)(F)F)nc(-c3nc(N)c4c(n3)NC(=O)C4(C)c3ccc(Cl)c(F)c3)cn2n1 (centres unmarked) [Example 90B]", 135),
    ("CC1(c2ccc(Cl)c(F)c2)C(=O)Nc2nc(-c3cn4ncnc4c(CCC(F)(F)F)n3)nc(N)c21 (centres unmarked) [Example 75B]", 136),
    ("C[C@@]1(c2ccc(F)cc2)C(=O)Nc2nc(-c3cn4ncnc4c(Cc4cccc(O)c4)n3)nc(N)c21 [Example 113B]", 171),
    ("CC1(c2ccc(F)c(Cl)c2)C(=O)Nc2nc(-c3cn4ncnc4c(CCCC(F)(F)F)n3)nc(O)c21 (centres unmarked) [Example 147B]", 94),
    ("CC1(c2ccc(F)cn2)C(=O)Nc2nc(-c3cn4ncnc4c(CCC(F)(F)F)n3)nc(N)c21 (centres unmarked) [Example 81B]", 115),
    ("CC1(c2ccc(F)cn2)C(=O)Nc2nc(-c3cn4ncnc4c(CCCC(F)(F)F)n3)nc(N)c21 (centres unmarked) [Example 22B]", 130),
]

a = N#Cc1ccc(C2(C3CC3)C(=O)Nc3nc(-c4cn5ncnc5c(CCC(F)(F)C(F)(F)F)n4)nc(N)c32)nc1 (centres unmarked) [Example 118A]
b = CCCCc1nc(-c2nc(N)c3c(n2)NC(=O)C3(C)c2ccc(Cl)cc2)cn2ncnc12 (centres unmarked) [Example 63A]
c = Cc1nc(C2(C)C(=O)Nc3nc(-c4cn5ncnc5c(CCCC(F)(F)F)n4)nc(N)c32)ccc1C(F)(F)F (racemic) [Example 49B]
Arrange these molecules by their Emax, starting with the largest number. Returns: the labels arranged in the requested order. b, c, a

I = O=C1Nc2nc(-c3cn4ncnc4c(CCC(F)(F)C(F)(F)F)n3)nc(O)c2C1(c1ccc(F)c(F)c1)C1CC1 (centres unmarked) [Example 123A]
II = Nc1nc(-c2cn3ncnc3c(CCCC(F)(F)F)n2)nc2c1C(c1ccc(C(F)F)cn1)(C1CC1)C(=O)N2 (racemic) [Example 44B]
Which item exceeds the other in Emax, I or II ? Indicate your choice by writing its label. II
(II: 120%, I: 78%)
